Could you please report measured MIC for the items listed next?
system: Pseudomonas aeruginosa; test: Antibacterial activity against Pseudomonas aeruginosa 91433 assessed as reduction in bacterial growth incubated for 18 hrs by broth microdilution assay; format: functional

Field MIC (entry CO[C@H]1/C=C/O[C@@]2(C)Oc3c(C)c(O)c4c(O)c(c(/C=N/N5CCN(Cc6cn(CCCCCCO[C@@H]7[C@@H](O[C@H]8O[C@H](CO)[C@@H](O)[C@H](N)[C@H]8O)[C@H](N)C[C@H](N)[C@H]7O[C@H]7O[C@H](CN)[C@@H](O)C[C@H]7N)nn6)CC5)c(O)c4c3C2=O)NC(=O)/C(C)=C\C=C\[C@H](C)[C@H](O)[C@@H](C)[C@@H](O)[C@@H](C)[C@H](OC(C)=O)[C@@H]1C.Cl.Cl.Cl.Cl.Cl ) reads > 128 µg/mL

Note to self: MIC recorded for CO[C@H]1/C=C/O[C@@]2(C)Oc3c(C)c(O)c4c(O)c(c(/C=N/N5CCN(Cc6cn(CCCCCCCCCCCCO[C@@H]7[C@@H](O[C@H]8O[C@H](CO)[C@@H](O)[C@H](N)[C@H]8O)[C@H](N)C[C@H](N)[C@H]7O[C@H]7O[C@H](CN)[C@@H](O)C[C@H]7N)nn6)CC5)c(O)c4c3C2=O)NC(=O)/C(C)=C\C=C\[C@H](C)[C@H](O)[C@@H](C)[C@@H](O)[C@@H](C)[C@H](OC(C)=O)[C@@H]1C.O=C(O)C(F)(F)F.O=C(O)C(F)(F)F.O=C(O)C(F)(F)F.O=C(O)C(F)(F)F.O=C(O)C(F)(F)F was > 128 µg/mL

Lab note: CO[C@H]1/C=C/O[C@@]2(C)Oc3c(C)c(O)c4c(O)c(c(/C=N/N5CCN(Cc6cn(CCCCO[C@@H]7[C@@H](O[C@H]8O[C@H](CO)[C@@H](O)[C@H](N)[C@H]8O)[C@H](N)C[C@H](N)[C@H]7O[C@H]7O[C@H](CN)[C@@H](O)C[C@H]7N)nn6)CC5)c(O)c4c3C2=O)NC(=O)/C(C)=C\C=C\[C@H](C)[C@H](O)[C@@H](C)[C@@H](O)[C@@H](C)[C@H](OC(C)=O)[C@@H]1C.O=C(O)C(F)(F)F.O=C(O)C(F)(F)F.O=C(O)C(F)(F)F.O=C(O)C(F)(F)F.O=C(O)C(F)(F)F gave MIC of > 128 µg/mL

###

system: Pseudomonas aeruginosa; assay: Antibacterial activity against Pseudomonas aeruginosa 259-96918 assessed as reduction in bacterial growth incubated for 18 hrs by broth microdilution assay; type: functional
Please go through the items and note down their MIC.

For record CO[C@H]1/C=C/O[C@@]2(C)Oc3c(C)c(O)c4c(O)c(c(/C=N/N5CCN(Cc6cn(CCCCO[C@@H]7[C@@H](O[C@H]8O[C@H](CO)[C@@H](O)[C@H](N)[C@H]8O)[C@H](N)C[C@H](N)[C@H]7O[C@H]7O[C@H](CN)[C@@H](O)C[C@H]7N)nn6)CC5)c(O)c4c3C2=O)NC(=O)/C(C)=C\C=C\[C@H](C)[C@H](O)[C@@H](C)[C@@H](O)[C@@H](C)[C@H](OC(C)=O)[C@@H]1C.O=C(O)C(F)(F)F.O=C(O)C(F)(F)F.O=C(O)C(F)(F)F.O=C(O)C(F)(F)F.O=C(O)C(F)(F)F the listed MIC is > 128 µg/mL

Briefly, MIC measured for CO[C@H]1/C=C/O[C@@]2(C)Oc3c(C)c(O)c4c(O)c(c(/C=N/N5CCN(Cc6cn(CCCCCCO[C@@H]7[C@@H](O[C@H]8O[C@H](CO)[C@@H](O)[C@H](N)[C@H]8O)[C@H](N)C[C@H](N)[C@H]7O[C@H]7O[C@H](CN)[C@@H](O)C[C@H]7N)nn6)CC5)c(O)c4c3C2=O)NC(=O)/C(C)=C\C=C\[C@H](C)[C@H](O)[C@@H](C)[C@@H](O)[C@@H](C)[C@H](OC(C)=O)[C@@H]1C.Cl.Cl.Cl.Cl.Cl : > 128 µg/mL

Field MIC (entry CO[C@H]1/C=C/O[C@@]2(C)Oc3c(C)c(O)c4c(O)c(c(/C=N/N5CCN(Cc6cn(CCCCCCCCCCCCO[C@@H]7[C@@H](O[C@H]8O[C@H](CO)[C@@H](O)[C@H](N)[C@H]8O)[C@H](N)C[C@H](N)[C@H]7O[C@H]7O[C@H](CN)[C@@H](O)C[C@H]7N)nn6)CC5)c(O)c4c3C2=O)NC(=O)/C(C)=C\C=C\[C@H](C)[C@H](O)[C@@H](C)[C@@H](O)[C@@H](C)[C@H](OC(C)=O)[C@@H]1C.O=C(O)C(F)(F)F.O=C(O)C(F)(F)F.O=C(O)C(F)(F)F.O=C(O)C(F)(F)F.O=C(O)C(F)(F)F ) reads > 128 µg/mL
